- Test system: Trypanosoma brucei rhodesiense
- assay.info: Antitrypanosomal activity against Trypanosoma brucei rhodesiense after 72 hrs by alamar blue assay
- Type: functional, organism-based
property.label: pIC50
Remember the convention: pIC50 equals -log10 of concentration in molar.

compound: c1ccc(C2CC3(N4CCCCC4)CCNC2C(c2ccccc2)C3)cc1 (stereo unspecified)
pIC50: 5.18

compound: NC1CC2(N3CCCCC3)CC(c3ccccc3)C1C(c1ccccc1)C2 (stereo unspecified)
pIC50: 6.57

compound: CN1CCN(CC(=O)OC2CC3(N(C)C)CC(c4ccccc4)C2C(c2ccccc2)C3)CC1 (racemic)
pIC50: 6.89

// CCN(CC)CC(=O)OC1CC2(N(C)C)CC(c3ccccc3)C1C(c1ccccc1)C2 (stereo unspecified) : pIC50 value = 6.21

For record O=C(CN1CCCCC1)OC1CC2(N3CCCC3)CC(c3ccccc3)C1C(c1ccccc1)C2 (stereo unspecified) the listed pIC50 is 6.43

So for O=C(CN1CCCC1)OC1CC2(N3CCCCC3)CC(c3ccccc3)C1C(c1ccccc1)C2 (stereo unspecified) , the logged pIC50 turned out to be 6.49

* * *

Entries and their measured selectivity ratio follow.
- assay.info: Selectivity index, ratio of IC50 for rat L6 cells to IC50 for Plasmodium falciparum K1
- Format: toxicity, cell-based
- condition.details: L6 cells (versus Plasmodium falciparum K1), read-out: Ratio IC50
Please respond with just the number, no unit label.

Please review the entries below; each comes with its answer.
compound: CN1CCN(CC(=O)OC2CC3(N4CCCCC4)CC(c4ccccc4)C2C(c2ccccc2)C3)CC1 (racemic)
selectivity ratio: 278
//
compound: NCC(=O)OC1CC2(N3CCCC3)CC(c3ccccc3)C1C(c1ccccc1)C2 (stereo unspecified)
selectivity ratio: 61.3
//
compound: NC1CC2(N3CCCCC3)CC(c3ccccc3)C1C(c1ccccc1)C2 (stereo unspecified)
selectivity ratio: 63.5
//
compound: CN1CCN(CC(=O)N2CCC3(N4CCCC4)CC(c4ccccc4)C2C(c2ccccc2)C3)CC1 (racemic)
selectivity ratio: 83.2
//
compound: CN1CCN(CCC(=O)NC2CC3(N4CCCC4)CC(c4ccccc4)C2C(c2ccccc2)C3)CC1 (racemic)
selectivity ratio: 41.7

Attention now shifts to the item below.
response.value for C[C@@H]1CC[C@H]2[C@@H](C)C(=O)O[C@@H]3O[C@@]4(C)CC[C@@H]1[C@]32OO4 (field: selectivity ratio) = 70400

* * *

- Test system: Trypanosoma brucei rhodesiense
- assay.info: Antitrypanosomal activity against Trypanosoma brucei rhodesiense after 72 hrs by alamar blue assay
- Assay type: functional, organism-based
property.label: pIC50
A value of pIC50 is the negative decimal logarithm of a concentration given in moles per litre.

The cases that follow already have their pIC50 on record.
compound: CN1CCN(CC(=O)OC2CC3(N4CCCC4)CC(c4ccccc4)C2C(c2ccccc2)C3)CC1 (racemic)
pIC50: 6.85
//
compound: CN1CCN(CCC(=O)NC2CC3(N4CCCCC4)CC(c4ccccc4)C2C(c2ccccc2)C3)CC1 (racemic)
pIC50: 6.07

Form: compound = CN1CCN(CC(=O)OC2CC3(N4CCCCC4)CC(c4ccccc4)C2C(c2ccccc2)C3)CC1 (racemic) ; pIC50 = 6.06

Noted for CN1CCN(CC(=O)NC2CC3(N(C)C)CC(c4ccccc4)C2C(c2ccccc2)C3)CC1 (racemic) : its pIC50 reads 5.80

GET /value?item= O=C(CN1CCCCC1)OC1CC2(N3CCCCC3)CC(c3ccccc3)C1C(c1ccccc1)C2 (stereo not given) &field=pIC50 returns 6.06
